Values were extracted from ChEMBL document CHEMBL1138764.

Catalogue of molecules with associated inhibition at 10 µM
# System: L1210
# procedureDetails: Inhibition of [3H]thymidine uptake in L1210 cells at 10 uM
# Assay type: functional
# settings: Mus musculus
Write the answer as a number in %, unit excluded.

Recorded results for 5 molecules are shown here.
COC[C@H](COc1nc(N2CCCCC2)c2nc(OC[C@H](COC)OC)nc(N3CCCCC3)c2n1)OC = 100
COc1ccc(CNc2nc(N(CCO)CCO)nc3c(NCc4ccc(OC)cc4)nc(N(CCO)CCO)nc23)cc1 = 96
CC(O)CNc1nc(NCc2ccccc2)c2nc(NCC(C)O)nc(NCc3ccccc3)c2n1 (centres undefined) = 84
CCCOc1nc(N2CCCCC2)c2nc(OCCC)nc(N3CCCCC3)c2n1 = 37
CN(Cc1ccccc1)c1nc(OCCCO)nc2c(N(C)Cc3ccccc3)nc(OCCCO)nc12 = 77

// query inhibition at 10 µM value for entry "OCCN(CCO)c1nc(N2CCCCC2)nc2c(N(CCO)CCO)nc(N3CCCCC3)nc12"
74

OCC(O)COc1nc(N2CCCCC2)c2nc(OC[C@H](O)CO)nc(N3CCCCC3)c2n1 (some centres undefined) , same question.
32

"OCCN(CCO)c1nc(NCc2ccc(Cl)cc2)c2nc(N(CCO)CCO)nc(NCc3ccc(Cl)cc3)c2n1" , same question.
92

"C[C@H](O)COc1nc(N2CCCCC2)c2nc(OC[C@@H](C)O)nc(N3CCCCC3)c2n1" , same question.
92

"COCCOc1nc(N(C)Cc2ccccc2)c2nc(OCCOC)nc(N(C)Cc3ccccc3)c2n1" , same question.
68
